system under test: Muscarinic acetylcholine receptor M1 (Rattus norvegicus) (UniProt P08482)
Sequence (P08482 whole entry, looked up): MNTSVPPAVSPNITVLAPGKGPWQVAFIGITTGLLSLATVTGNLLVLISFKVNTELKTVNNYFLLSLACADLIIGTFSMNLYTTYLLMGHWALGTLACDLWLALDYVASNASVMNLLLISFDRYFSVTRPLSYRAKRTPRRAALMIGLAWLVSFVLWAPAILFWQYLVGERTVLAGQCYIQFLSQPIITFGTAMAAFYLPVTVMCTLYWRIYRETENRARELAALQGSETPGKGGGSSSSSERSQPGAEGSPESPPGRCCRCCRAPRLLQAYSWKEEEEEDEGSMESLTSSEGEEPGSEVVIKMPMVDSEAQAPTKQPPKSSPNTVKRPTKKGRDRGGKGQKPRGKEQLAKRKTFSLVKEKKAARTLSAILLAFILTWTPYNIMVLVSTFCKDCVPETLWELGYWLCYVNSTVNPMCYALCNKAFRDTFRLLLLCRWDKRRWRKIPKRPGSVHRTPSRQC
test name: blockers of ACh-evoked M1 calcium signal – CHO cells, Fluo-4 calcium, duplicate, confirmation (AID 677);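 further: raw fluorescence intensity difference in arbitrary instrument units and not normalized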
test conditions: ACh EC80 antagonism, at 10 µM, hits give low values
Screen size: about 1,700 compounds; about 720 (42%) were called active. So high a share suggests a set chosen from earlier hits. The list is a sample of the results.
Could you please mark 1.0 for values of calcium response (max-min fluorescence) below 500 and 0.0 for values at or above it?

{"compound": "CCN1C(=O)/C(=C2\\SC(N3CCCCC3)=NC2=O)c2ccccc21", "system under test": "Muscarinic acetylcholine receptor M1 (Rattus norvegicus) (UniProt P08482)", "category": 1.0}
{"compound": "CCN1CCN(c2c(Cl)cccc2NC(=O)c2ccc(Br)o2)CC1", "system under test": "Muscarinic acetylcholine receptor M1 (Rattus norvegicus) (UniProt P08482)", "category": 1.0}
{"compound": "CCC(C(=O)OCCN(CC)CC)c1ccccc1 (stereo not drawn)", "system under test": "Muscarinic acetylcholine receptor M1 (Rattus norvegicus) (UniProt P08482)", "category": 1.0}
{"compound": "O=C(c1ccc(S(=O)(=O)N2CCOCC2)cc1)N1CCN(c2ccccc2)CC1", "system under test": "Muscarinic acetylcholine receptor M1 (Rattus norvegicus) (UniProt P08482)", "category": 0.0}
{"compound": "COCCn1c(SCC(=O)Nc2cc(Cl)ccc2OC)nc2c(c1=O)SC(C)C2 (stereo not drawn)", "system under test": "Muscarinic acetylcholine receptor M1 (Rattus norvegicus) (UniProt P08482)", "category": 0.0}
{"compound": "CCC1(C)Cc2c(sc3nc4n(c(=O)c23)CCCS4)CO1 (stereo not drawn)", "system under test": "Muscarinic acetylcholine receptor M1 (Rattus norvegicus) (UniProt P08482)", "category": 1.0}
{"compound": "CN1CCN(CC(=O)Nc2sc3c(c2C#N)CCC(C(C)(C)C)C3)CC1 (stereo not drawn)", "system under test": "Muscarinic acetylcholine receptor M1 (Rattus norvegicus) (UniProt P08482)", "category": 0.0}
{"compound": "CCOC(=O)c1[nH]c2ccc(OC)cc2c1NC(=O)CCN1CCN(Cc2ccccc2)CC1", "system under test": "Muscarinic acetylcholine receptor M1 (Rattus norvegicus) (UniProt P08482)", "category": 1.0}
{"compound": "CCCCN(C)C(=O)c1ccc2c(c1)N(CC)C(=O)c1ccccc1S2(=O)=O", "system under test": "Muscarinic acetylcholine receptor M1 (Rattus norvegicus) (UniProt P08482)", "category": 1.0}
{"compound": "O=C(NC1=NCCS1)c1ccc(Cl)s1", "system under test": "Muscarinic acetylcholine receptor M1 (Rattus norvegicus) (UniProt P08482)", "category": 0.0}
{"compound": "CN(C)[C@@H]1C(=O)C(C(N)=O)=C(O)[C@@]2(O)C(=O)C3=C(O)c4c(O)ccc(Cl)c4[C@@H](O)[C@H]3C[C@@H]12", "system under test": "Muscarinic acetylcholine receptor M1 (Rattus norvegicus) (UniProt P08482)", "category": 0.0}

* * *

system under test: Muscarinic acetylcholine receptor M1 (Rattus norvegicus)
test name: blockers of ACh-evoked M1 calcium signal – CHO cells, Fluo-4 calcium, duplicate, confirmation (AID 677);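 further: raw fluorescence intensity difference in arbitrary instrument units and not normalized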
test conditions: ACh EC80 antagonism, at 10 µM
Among all 1,700 compounds or so, about 720 (42%) were called active.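 Rule for the calls: active = calcium response below the same-plate mean of wells given acetylcholine alone at its 80%-effect dose, minus 3 SD; inactive = the rest.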 The set was probably picked from earlier hits. A selection follows.
Labels: 1.0 for active, 0.0 for inactive

{"compound": "Cc1nc2ccccc2c2oc(C(=O)NCCCN3CCC(C)CC3)cc12", "system under test": "Muscarinic acetylcholine receptor M1 (Rattus norvegicus)", "category": 1.0}
{"compound": "CC1CCCC(C)N1CCCNC(=O)c1cc2c(=O)n(C)c3ccccc3c2n1C (centres undefined)", "system under test": "Muscarinic acetylcholine receptor M1 (Rattus norvegicus)", "category": 0.0}
{"compound": "COc1ccc(CCn2c(=N)c(C(=O)NCc3ccco3)cc3c(=O)n4cccc(C)c4nc32)cc1", "system under test": "Muscarinic acetylcholine receptor M1 (Rattus norvegicus)", "category": 0.0}
{"compound": "COc1cccc2sc(Nc3nc(C)c(C(C)=O)s3)nc12", "system under test": "Muscarinic acetylcholine receptor M1 (Rattus norvegicus)", "category": 0.0}
